- Target: polyA-polyU
- Procedure text: UV–Vis titration with polyA-polyU (Scatchard)
- Assay type: binding
- Test conditions: binding constant, Scatchard, PBS, pH 7
Recorded metric: log Ks, polyA-polyU

Compound structure string	Measured number
N=C(N)c1ccc2[nH]c(-c3ccc(OCc4cn(Cc5ccccc5)nn4)cc3)nc2c1	5.94
CC(C)NC(=N)c1ccc2[nH]c(-c3ccc(OCc4cn(Cc5ccccc5)nn4)cc3)nc2c1	6.13
COc1ccc(-n2cc(COc3ccc(-c4nc5cc(C(=N)NC(C)C)ccc5[nH]4)cc3)nn2)cc1.Cl.Cl	5.27
CC(C)NC(=N)c1ccc2[nH]c(-c3ccc(OCc4cn(-c5ccccc5Cl)nn4)cc3)nc2c1.Cl.Cl	6.00
CC(C)NC(=N)c1ccc2[nH]c(-c3ccc(OCc4cn(-c5ccccc5)nn4)cc3)nc2c1	5.87
Cl.Cl.c1ccc(SCn2cc(COc3ccc(-c4nc5cc(C6=NCCN6)ccc5[nH]4)cc3)nn2)cc1	5.36
CC(C)NC(=N)c1ccc2[nH]c(-c3ccc(OCc4cn(CSc5ccccc5)nn4)cc3)nc2c1.Cl.Cl	5.96
Cl.Cl.Clc1ccccc1-n1cc(COc2ccc(-c3nc4cc(C5=NCCN5)ccc4[nH]3)cc2)nn1	5.38
Cl.Cl.N=C(N)c1ccc2[nH]c(-c3ccc(OCc4cn(-c5ccccc5Cl)nn4)cc3)nc2c1	5.21
c1ccc(Cn2cc(COc3ccc(-c4nc5cc(C6=NCCN6)ccc5[nH]4)cc3)nn2)cc1	5.89
Cl.Cl.N=C(N)c1ccc2[nH]c(-c3ccc(OCc4cn(CSc5ccccc5)nn4)cc3)nc2c1	6.20
COc1ccc(-n2cc(COc3ccc(-c4nc5cc(C6=NCCN6)ccc5[nH]4)cc3)nn2)cc1.Cl.Cl	5.46
N=C(N)c1ccc2[nH]c(-c3ccc(OCc4cn(-c5ccccc5)nn4)cc3)nc2c1	5.24

====

- System: E. faecalis ATCC 29212
Friendly reminder: MIC below 100 µg/mL is TRUE, at or above is FALSE.

Compound	Class name
COc1ccc(-n2cc(COc3ccc(-c4nc5cc(C(=N)N)ccc5[nH]4)cc3)nn2)cc1.Cl.Cl [Compound 7b]	FALSE
Cl.Cl.Clc1ccccc1-n1cc(COc2ccc(-c3nc4cc(C5=NCCN5)ccc4[nH]3)cc2)nn1 [Compound 9c]	TRUE
N=C(N)c1ccc2[nH]c(-c3ccc(OCc4cn(Cc5ccccc5)nn4)cc3)nc2c1 [Compound 7d]	TRUE
CC(C)NC(=N)c1ccc2[nH]c(-c3ccc(OCc4cn(-c5ccccc5)nn4)cc3)nc2c1 [Compound 8a]	FALSE
CC(C)NC(=N)c1ccc2[nH]c(-c3ccc(OCc4cn(CSc5ccccc5)nn4)cc3)nc2c1.Cl.Cl [Compound 8e]	FALSE
CNC(C)C1CCC(N)C(OC2C(N)CC(N)C(OC3OCC(C)(O)C(NC)C3O)C2O)O1 (stereo not shown) [Gentamicin, gentamicin, reference compound]	TRUE
CC(C)NC(=N)c1ccc2[nH]c(-c3ccc(OCc4cn(Cc5ccccc5)nn4)cc3)nc2c1 [Compound 8d]	FALSE

====

List of melting point values.
Recorded metric: melting point

Compound structure string	Result
COc1ccc(-n2cc(COc3ccc(-c4nc5cc(C(=N)NC(C)C)ccc5[nH]4)cc3)nn2)cc1.Cl.Cl	188 to 191 °C
CC(C)NC(=N)c1ccc2[nH]c(-c3ccc(OCc4cn(-c5ccccc5Cl)nn4)cc3)nc2c1.Cl.Cl	210 to 213 °C
Cl.Cl.N=C(N)c1ccc2[nH]c(-c3ccc(OCc4cn(-c5ccccc5Cl)nn4)cc3)nc2c1	176 to 177 °C
CC(C)NC(=N)c1ccc2[nH]c(-c3ccc(OCc4cn(CSc5ccccc5)nn4)cc3)nc2c1.Cl.Cl	152 to 154 °C
Cl.Cl.c1ccc(SCn2cc(COc3ccc(-c4nc5cc(C6=NCCN6)ccc5[nH]4)cc3)nn2)cc1	162 to 164 °C
COc1ccc(-n2cc(COc3ccc(-c4nc5cc(C(=N)N)ccc5[nH]4)cc3)nn2)cc1.Cl.Cl	195 to 197 °C
Cl.Cl.N=C(N)c1ccc2[nH]c(-c3ccc(OCc4cn(CSc5ccccc5)nn4)cc3)nc2c1	173 to 176 °C
COc1ccc(-n2cc(COc3ccc(-c4nc5cc(C6=NCCN6)ccc5[nH]4)cc3)nn2)cc1.Cl.Cl	197 to 199 °C
Cl.Cl.Clc1ccccc1-n1cc(COc2ccc(-c3nc4cc(C5=NCCN5)ccc4[nH]3)cc2)nn1	194 to 196 °C

====

- System: ctDNA
- Procedure text: Thermal melting (ΔTm) of ctDNA
- Assay type: binding, calf
- Test conditions: r = 0.5; PBS, pH 7
Recorded metric: ΔTm, ctDNA, r = 0.5 (°C)

Molecule	Target	Measure unit	Measured number
CC(C)NC(=N)c1ccc2[nH]c(-c3ccc(OCc4cn(CSc5ccccc5)nn4)cc3)nc2c1.Cl.Cl [Compound 8e]	ctDNA	°C	1.72
CC(C)NC(=N)c1ccc2[nH]c(-c3ccc(OCc4cn(-c5ccccc5)nn4)cc3)nc2c1 [Compound 8a]	ctDNA	°C	3.94
c1ccc(Cn2cc(COc3ccc(-c4nc5cc(C6=NCCN6)ccc5[nH]4)cc3)nn2)cc1 [Compound 9d]	ctDNA	°C	3.52
Cl.Cl.N=C(N)c1ccc2[nH]c(-c3ccc(OCc4cn(CSc5ccccc5)nn4)cc3)nc2c1 [Compound 7e]	ctDNA	°C	2.62
CC(C)NC(=N)c1ccc2[nH]c(-c3ccc(OCc4cn(Cc5ccccc5)nn4)cc3)nc2c1 [Compound 8d]	ctDNA	°C	3.32
N=C(N)c1ccc2[nH]c(-c3ccc(OCc4cn(Cc5ccccc5)nn4)cc3)nc2c1 [Compound 7d]	ctDNA	°C	3.86
N=C(N)c1ccc2[nH]c(-c3ccc(OCc4cn(-c5ccccc5)nn4)cc3)nc2c1 [Compound 7a]	ctDNA	°C	4.84
Cl.Cl.c1ccc(SCn2cc(COc3ccc(-c4nc5cc(C6=NCCN6)ccc5[nH]4)cc3)nn2)cc1 [Compound 9e]	ctDNA	°C	3.47
CC(C)NC(=N)c1ccc2[nH]c(-c3ccc(OCc4cn(-c5ccccc5Cl)nn4)cc3)nc2c1.Cl.Cl [Compound 8c]	ctDNA	°C	3.89
Cl.Cl.Clc1ccccc1-n1cc(COc2ccc(-c3nc4cc(C5=NCCN5)ccc4[nH]3)cc2)nn1 [Compound 9c]	ctDNA	°C	3.31
COc1ccc(-n2cc(COc3ccc(-c4nc5cc(C(=N)NC(C)C)ccc5[nH]4)cc3)nn2)cc1.Cl.Cl [Compound 8b]	ctDNA	°C	3.96
Cl.Cl.N=C(N)c1ccc2[nH]c(-c3ccc(OCc4cn(-c5ccccc5Cl)nn4)cc3)nc2c1 [Compound 7c]	ctDNA	°C	3.20

====

- Test system: polyG-polyC (polyC-polyG) (RNA, polymer) G/C
- Procedure text: UV-Vis titration, Scatchard
- Test conditions: PBS, I = 0.05 M (Table 1 says I = 0.015 M), cations not specified, I = 0.015 M (Methods: 0.05 M), pH 7, n fixed, per base
Response key: Satisfied means log Ks >= 6; Not satisfied means log Ks < 6.

Compound structure string	Class name
c1ccc(-n2cc(COc3ccc(-c4nc5cc(C6=NCCN6)ccc5[nH]4)cc3)nn2)cc1	Satisfied
N=C(N)c1ccc2[nH]c(-c3ccc(OCc4cn(-c5ccccc5)nn4)cc3)nc2c1	Satisfied
CC(C)NC(=N)c1ccc2[nH]c(-c3ccc(OCc4cn(Cc5ccccc5)nn4)cc3)nc2c1	Not satisfied
Cl.Cl.c1ccc(SCn2cc(COc3ccc(-c4nc5cc(C6=NCCN6)ccc5[nH]4)cc3)nn2)cc1	Not satisfied

====

- Target: polyC-polyG
- Procedure text: UV–Vis titration with polyC-polyG (Scatchard)
- Format: binding
- Test conditions: binding constant, Scatchard, PBS, pH 7
The entries below come with measured log Ks, polyC-polyG values attached.

Compound structure string	log Ks, polyC-polyG
N=C(N)c1ccc2[nH]c(-c3ccc(OCc4cn(Cc5ccccc5)nn4)cc3)nc2c1	6.56
CC(C)NC(=N)c1ccc2[nH]c(-c3ccc(OCc4cn(-c5ccccc5Cl)nn4)cc3)nc2c1.Cl.Cl	6.43
COc1ccc(-n2cc(COc3ccc(-c4nc5cc(C(=N)NC(C)C)ccc5[nH]4)cc3)nn2)cc1.Cl.Cl	6.39
Cl.Cl.c1ccc(SCn2cc(COc3ccc(-c4nc5cc(C6=NCCN6)ccc5[nH]4)cc3)nn2)cc1	4.29
c1ccc(Cn2cc(COc3ccc(-c4nc5cc(C6=NCCN6)ccc5[nH]4)cc3)nn2)cc1	6.59
Cl.Cl.N=C(N)c1ccc2[nH]c(-c3ccc(OCc4cn(CSc5ccccc5)nn4)cc3)nc2c1	5.89

====

- Test system: polyG-polyC (polyC-polyG) (RNA, polymer) G/C
- Procedure text: UV-Vis titration, Scatchard
- Test conditions: PBS, I = 0.05 M (Table 1 says I = 0.015 M), cations not specified, I = 0.015 M (Methods: 0.05 M), pH 7, per base
Measured log Ks, listed per entry.

Compound structure string	log Ks
Cl.Cl.N=C(N)c1ccc2[nH]c(-c3ccc(OCc4cn(CSc5ccccc5)nn4)cc3)nc2c1	5.89
c1ccc(Cn2cc(COc3ccc(-c4nc5cc(C6=NCCN6)ccc5[nH]4)cc3)nn2)cc1	6.59
COc1ccc(-n2cc(COc3ccc(-c4nc5cc(C(=N)NC(C)C)ccc5[nH]4)cc3)nn2)cc1.Cl.Cl	6.39
CC(C)NC(=N)c1ccc2[nH]c(-c3ccc(OCc4cn(-c5ccccc5Cl)nn4)cc3)nc2c1.Cl.Cl	6.43
